Cited source: ChEMBL document CHEMBL3885861

species: Rattus norvegicus; assay: Open TG-GATES - Regimen: Single; format: toxicity, organism-based, Sprague-Dawley; design: regimen Single, gender Male, age 6 weeks; conditions: in vivo, po, 1000 mg/kg, 3 h, tissue Plasma, route gavage, dose level High
endpoint.name: TC (mg/dL)
Answers are plain numbers, in mg/dL.

Batch of 5 compounds: report TC for each.
1. CC(C)OC(=O)C(C)(C)Oc1ccc(C(=O)c2ccc(Cl)cc2)cc1 [FENOFIBRATE]
2. COc1ccc2[nH]c([S+]([O-])Cc3ncc(C)c(OC)c3C)nc2c1 (stereo not given)
3. CCOC(=O)CCC(=O)O[C@H]1[C@H](O[C@@H]2[C@@H](C)[C@H](O[C@H]3C[C@@](C)(OC)[C@@H](O)[C@H](C)O3)[C@@H](C)C(=O)O[C@H](CC)[C@@](C)(O)[C@H](O)[C@@H](C)C(=O)[C@H](C)C[C@@]2(C)O)O[C@H](C)C[C@@H]1N(C)C [ERYTHROMYCIN ETHYLSUCCINATE]
4. COC1=CC(=O)C[C@@H](C)[C@]12Oc1c(Cl)c(OC)cc(OC)c1C2=O
5. NC(N)=Nc1nc(CSCCC(N)=NS(N)(=O)=O)cs1

[64.8, 73.4, 74.2, 86, 81.2]
